B1: Apolipophorin-3b, P10762 (parent)
chain: MNTLLAVLMLAVAAQARPDAAGHVNIAEAVQQLNHTIVNAAHELHETLGLPTPDEALNLLTEQANAFKTKIAEVTTSLKQEAEKHQGSVAEQLNRFARNLNNSIHDAATSAQPADQLNSLQSALTNVGHQWQTSQPRPSVAQEAWAPVQSALQEAAEKTKEAAANLQNSIQSAVQKPAN

Variants of: B1
Conditions: Locusta migratoria; pH 7.4; Thermal; CD; Na2HPO4 KH2PO4 10 mM 2 mM; NaCl 127 mM; reversible: yes; structure 1LS4; whole UniProt chain shown
Consider the following variants and their measured Tm readings.

| VAR | VALUE_UNIT | Tm |
| --- | --- | --- |
| L33K | °C | 37 |
| T47A | °C | 57 |
| T159A | °C | 44 |
| A155K | °C | 38 |
